Molecular target: Histamine H1 receptor (Homo sapiens) (UniProt P35367)
Sequence (P35367 whole entry): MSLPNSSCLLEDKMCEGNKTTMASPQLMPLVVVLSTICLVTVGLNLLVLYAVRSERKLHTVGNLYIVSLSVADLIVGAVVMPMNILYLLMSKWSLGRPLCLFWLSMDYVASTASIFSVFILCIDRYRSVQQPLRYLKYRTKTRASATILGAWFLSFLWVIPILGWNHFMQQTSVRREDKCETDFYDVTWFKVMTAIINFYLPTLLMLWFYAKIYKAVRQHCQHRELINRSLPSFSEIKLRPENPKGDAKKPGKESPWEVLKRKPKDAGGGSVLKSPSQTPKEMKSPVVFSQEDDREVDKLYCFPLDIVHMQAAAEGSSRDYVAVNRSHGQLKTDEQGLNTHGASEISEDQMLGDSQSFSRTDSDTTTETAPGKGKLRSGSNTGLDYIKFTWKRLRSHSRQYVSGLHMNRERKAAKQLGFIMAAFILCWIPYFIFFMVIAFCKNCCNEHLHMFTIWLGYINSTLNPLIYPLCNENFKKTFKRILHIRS
Assay: Displacement of [3H]pyrilamine from human H1 receptor expressed in monkey COS7 cells at 1 uM
Format: cell-based
Conditions: COS-7
reported-metric: inhibition (%)

// worked examples, inhibition included
CC1CCCN1CCN1CCN(CCN2CCCCC2)C1=C(C#N)C#N (racemic): 5
C[C@@H]1CCCN1CCN1CCN(CCN2CCC[C@@H]2C)C1=C(C#N)C#N: -3
C[C@@H]1CCCN1CCN1CCN(CCN2CCC[C@H]2C)C1=C(C#N)C#N: 0
C[C@H]1CCCN1CCN1CCN(CCN2CCC[C@@H]2C)C1=C(C#N)C#N: 8

a. CC1CCCN1CCN1CCN(CCN2CCCC2C)C1=C(C#N)C#N (racemic)
b. N#CC(C#N)=C1N(CCCN2CCCCC2)CCN1CCCN1CCCCC1
// query Out of a and b , name the one with the higher inhibition. Your choice should be expressed through its label.
// result a
(a: 10%, b: 3%)

###

Molecular target: Histamine H3 receptor (Rattus norvegicus, UniProt Q9QYN8)
Sequence (Q9QYN8 whole entry): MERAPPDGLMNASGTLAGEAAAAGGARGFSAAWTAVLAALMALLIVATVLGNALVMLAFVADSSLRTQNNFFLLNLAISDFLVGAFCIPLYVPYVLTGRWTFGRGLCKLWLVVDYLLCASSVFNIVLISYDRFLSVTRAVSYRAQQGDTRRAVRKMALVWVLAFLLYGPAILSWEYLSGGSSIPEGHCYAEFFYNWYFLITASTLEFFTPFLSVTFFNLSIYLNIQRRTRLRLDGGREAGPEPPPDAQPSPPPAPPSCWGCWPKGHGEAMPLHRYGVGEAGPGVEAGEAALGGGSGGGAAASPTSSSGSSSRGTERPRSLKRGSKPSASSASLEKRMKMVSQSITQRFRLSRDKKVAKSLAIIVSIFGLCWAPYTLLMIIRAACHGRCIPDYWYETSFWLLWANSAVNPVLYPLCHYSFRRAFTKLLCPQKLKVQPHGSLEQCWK
Assay: Antagonist activity at histamine H3 receptor in rat forebrain assessed as inhibition of [3H]histamine release from synaptosomes
pIC50: −log10 of the molar value.
reported-metric: pIC50

C[C@H]1CCCN1CCN1CCN(CCN2CCC[C@@H]2C)C1=C(C#N)C#N: 8.72

I. CC1CCCN1CCN1CCN(CCN2CCCC2C)C1=C(C#N)C#N (racemic)
II. N#CC(C#N)=C1N(CCCN2CCCCC2)CCN1CCCN1CCCCC1
// query Smaller pIC50 value, I vs II ? Write down the label of the entry you select.
// result II

###

Molecular target: Histamine H4 receptor (Homo sapiens) (UniProt Q9H3N8)
Assay: Displacement of [3H]histamine from human H4 receptor expressed in monkey COS7 cells at 10 uM
Assay type: cell-based
Conditions: COS-7
reported-metric: inhibition (%)

Example entries and their recorded answers appear below.
CC1CCCN1CCN1CCN(CCN2CCCCC2)C1=C(C#N)C#N (racemic): 6
C[C@@H]1CCCN1CCN1CCN(CCN2CCC[C@@H]2C)C1=C(C#N)C#N: -3
C[C@H]1CCCN1CCN1CCN(CCN2CCC[C@@H]2C)C1=C(C#N)C#N: 0
N#CC(C#N)=C1N(CCCN2CCCCC2)CCN1CCCN1CCCCC1: -1

a. C[C@@H]1CCCN1CCN1CCN(CCN2CCC[C@H]2C)C1=C(C#N)C#N
b. CC1CCCN1CCN1CCN(CCN2CCCC2C)C1=C(C#N)C#N (racemic)
// query Between the entries labeled a and b , whose measured inhibition is lower? # reply format: chosen label
// result b
(b: -7%, a: 8%)

###

Target: Histamine H3 receptor (Rattus norvegicus)
Assay: Displacement of [3H]N-alpha-methylhistamine from histamine H3 receptor in rat striatal membrane at 1 uM
Format: cell membranes
Settings: Striatum
reported-metric: inhibition (%)

N#CC(C#N)=C1N(CCN2CCCCC2)CCN1CCN1CCOCC1: 82
N#CC(C#N)=C1N(CCN2CCCCC2)CCN1CCN1CCC(O)C1 (racemic): 86
N#CC(C#N)=C1N(CCCCN2CCCCC2)CCN1CCCN1CCCCC1: 88
CN1CCN(CCN2CCN(CCN3CCCCC3)C2=C(C#N)C#N)CC1: 82
N#CC(C#N)=C1N(CCCCN2CCCCC2)CCN1CCCCN1CCCCC1: 85

###

Target: Histamine H3 receptor (Homo sapiens)
Sequence (Q9Y5N1 whole entry): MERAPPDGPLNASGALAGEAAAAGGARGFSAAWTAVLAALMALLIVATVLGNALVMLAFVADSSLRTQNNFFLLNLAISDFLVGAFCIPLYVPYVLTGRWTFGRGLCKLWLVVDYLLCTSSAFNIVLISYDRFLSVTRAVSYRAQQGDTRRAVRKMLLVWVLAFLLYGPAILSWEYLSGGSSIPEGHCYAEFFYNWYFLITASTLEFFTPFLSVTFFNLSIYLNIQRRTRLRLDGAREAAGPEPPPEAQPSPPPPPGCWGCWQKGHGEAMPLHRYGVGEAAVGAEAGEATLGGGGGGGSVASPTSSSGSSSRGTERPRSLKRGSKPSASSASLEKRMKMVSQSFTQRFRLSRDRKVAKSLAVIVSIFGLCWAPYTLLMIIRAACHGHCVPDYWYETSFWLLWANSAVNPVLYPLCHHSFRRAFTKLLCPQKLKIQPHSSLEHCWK
Assay: Displacement of [3H]N-alpha-methylhistamine from human cloned histamine H3 receptor expressed in monkey COS7 cells at 1 uM
Assay type: cell-based
Conditions: COS-7
reported-metric: inhibition (%)

N#CC(C#N)=C1N(CCCCN2CCCCC2)CCN1CCCN1CCCCC1: 74
N#CC(C#N)=C1N(CCN2CCCCC2)CCN1CCN1CCOCC1: 69
N#CC(C#N)=C1N(CCN2CCCCC2)CCN1CCN1CCC(O)C1 (racemic): 70
N#CC(C#N)=C1N(CCCCN2CCCCC2)CCN1CCCCN1CCCCC1: 68
CN1CCN(CCN2CCN(CCN3CCCCC3)C2=C(C#N)C#N)CC1: 74

###

Biological target: Histamine H3 receptor (Homo sapiens)
Assay: Displacement of [3H]N-alpha-methylhistamine from human cloned histamine H3 receptor expressed in monkey COS7 cells
Format: cell-based, COS-7
pKi: −log10 of the molar value.
reported-metric: pKi

C[C@@H]1CCCN1CCN1CCN(CCN2CCC[C@@H]2C)C1=C(C#N)C#N: 9.33

a. CC1CCCN1CCN1CCN(CCN2CCCCC2)C1=C(C#N)C#N (racemic)
b. C[C@@H]1CCCN1CCN1CCN(CCN2CCC[C@H]2C)C1=C(C#N)C#N
c. N#CC(C#N)=C1N(CCCN2CCCCC2)CCN1CCN1CCCCC1
// query # desc sort on pKi across 3 molecules Show the ranking through the labels, in the order asked for.
// result a, b, c
(a: 9.42, b: 8.89, c: 8.18)

###

Target: UniProt:Q9QYN8
Assay: Displacement of [3H]N-alpha-methylhistamine from histamine H3 receptor in rat striatal membrane at 0.1 uM
Type: cell membranes
Details: Striatum
reported-metric: inhibition (%)

N#CC(C#N)=C1N(CCCCN2CCCCC2)CCN1CCCCN1CCCCC1: 51
N#CC(C#N)=C1N(CCCCN2CCCCC2)CCN1CCCN1CCCCC1: 65
CN1CCN(CCN2CCN(CCN3CCCCC3)C2=C(C#N)C#N)CC1: 43
N#CC(C#N)=C1N(CCN2CCCCC2)CCN1CCN1CCOCC1: 44
N#CC(C#N)=C1N(CCN2CCCCC2)CCN1CCN1CCC(O)C1 (racemic): 57

###

Molecular target: UniProt:P35367
Assay: Displacement of [3H]pyrilamine from human H1 receptor expressed in monkey COS7 cells at 10 uM
Format: cell-based
Settings: COS-7
reported-metric: inhibition (%)

Past entries and their recorded results:
CC1CCCN1CCN1CCN(CCN2CCCCC2)C1=C(C#N)C#N (racemic): 9
N#CC(C#N)=C1N(CCCN2CCCCC2)CCN1CCCN1CCCCC1: 21

1. C[C@@H]1CCCN1CCN1CCN(CCN2CCC[C@H]2C)C1=C(C#N)C#N
2. CC1CCCN1CCN1CCN(CCN2CCCC2C)C1=C(C#N)C#N (racemic)
3. C[C@H]1CCCN1CCN1CCN(CCN2CCC[C@@H]2C)C1=C(C#N)C#N
4. C[C@@H]1CCCN1CCN1CCN(CCN2CCC[C@@H]2C)C1=C(C#N)C#N
// query Kindly order the items shown according to inhibition, from the highest value down. Hello, could you send the labels back in the order asked? Thank you.
// result 2, 3, 4, 1

###

Biological target: Histamine H2 receptor (Homo sapiens) (UniProt P25021)
Sequence (P25021 whole entry): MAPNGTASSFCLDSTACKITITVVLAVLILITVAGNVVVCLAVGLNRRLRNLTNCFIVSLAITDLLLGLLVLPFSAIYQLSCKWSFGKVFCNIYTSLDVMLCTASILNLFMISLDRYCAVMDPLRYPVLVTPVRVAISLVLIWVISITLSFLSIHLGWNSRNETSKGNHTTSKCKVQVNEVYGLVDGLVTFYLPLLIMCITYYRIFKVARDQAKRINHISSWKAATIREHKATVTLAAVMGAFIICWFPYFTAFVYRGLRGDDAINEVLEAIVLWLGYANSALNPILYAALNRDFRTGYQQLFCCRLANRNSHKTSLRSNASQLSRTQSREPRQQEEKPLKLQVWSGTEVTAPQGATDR
Test: Displacement of [3H]tiotidine from human H2 receptor expressed in monkey COS7 cells at 1 uM
Assay type: cell-based
Settings: COS-7
reported-metric: inhibition (%)

C[C@@H]1CCCN1CCN1CCN(CCN2CCC[C@H]2C)C1=C(C#N)C#N: -7

P. N#CC(C#N)=C1N(CCCN2CCCCC2)CCN1CCCN1CCCCC1
Q. CC1CCCN1CCN1CCN(CCN2CCCCC2)C1=C(C#N)C#N (racemic)
R. CC1CCCN1CCN1CCN(CCN2CCCC2C)C1=C(C#N)C#N (racemic)
S. C[C@H]1CCCN1CCN1CCN(CCN2CCC[C@@H]2C)C1=C(C#N)C#N
// query With regard to inhibition, arrange the entries in ascending order, please. # the answer lists labels in the order requested
// result Q, P, R, S
